// molecules with pIC50 on Tyrosine-protein kinase JAK1 (Homo sapiens, UniProt P23458), multi-source literature
pIC50: −log10 of the molar value.

{"columns": ["Molecule", "Val"],
 "data": [
  ["CC#CCC(C1CC1)n1cc(-c2nc(-c3cnn(C)c3)cc3nccn23)cn1 (stereo not drawn)", "< 6.00"],
  ["N#CCC1(n2cc(-c3ncnc4[nH]ccc34)cn2)CN(C2CCN(C(=O)c3ccc(-c4ccc5ccncc5c4)c(F)c3)CC2)C1", "≥ 8.30"]
]}

Please give the measured pIC50 for this molecule: CN(c1ncnc2[nH]ccc12)C1CC2(C1)CN(C(=O)C1CCC(=O)CC1)C2
7.00 to 8.00

Also CCC(=O)N1CC2(CC(N(C)c3ncnc4[nH]ccc34)C2)C1 , if possible.
6.00 to 7.00

Try this molecule too: N#CCC1(n2cc(-c3ncnc4[nH]ccc34)cn2)CN(C2CCN(C(=O)c3cccc(Cl)n3)CC2)C1
≥ 8.30

Can you check CCOC(=O)Cn1cc(Nc2ncc3ccn(CCC(C)C)c3n2)cn1 next?
> 7.00

Here is the next molecule: CCC(CC)Cn1ccc2cnc(Nc3cnn(CC(=O)OC(C)C(C)O)c3)nc21 (stereo not drawn)
> 7.00

Quick one: Cn1cc(-c2cc3nccn3c(-c3cnn(C4(CC#N)CCN(S(=O)(=O)C(F)(F)F)C4)c3)n2)cn1 (stereo not drawn)
7.00 to 8.00

Try CN(c1ncnc2[nH]ccc12)C1CCC2(CC1)CCN(C(=O)COc1cc(F)cc(C#N)c1)CC2 next.
≥ 8.00
